# MEASURED TARGET: UniProt:P04062
# Sequence (P04062 40-536): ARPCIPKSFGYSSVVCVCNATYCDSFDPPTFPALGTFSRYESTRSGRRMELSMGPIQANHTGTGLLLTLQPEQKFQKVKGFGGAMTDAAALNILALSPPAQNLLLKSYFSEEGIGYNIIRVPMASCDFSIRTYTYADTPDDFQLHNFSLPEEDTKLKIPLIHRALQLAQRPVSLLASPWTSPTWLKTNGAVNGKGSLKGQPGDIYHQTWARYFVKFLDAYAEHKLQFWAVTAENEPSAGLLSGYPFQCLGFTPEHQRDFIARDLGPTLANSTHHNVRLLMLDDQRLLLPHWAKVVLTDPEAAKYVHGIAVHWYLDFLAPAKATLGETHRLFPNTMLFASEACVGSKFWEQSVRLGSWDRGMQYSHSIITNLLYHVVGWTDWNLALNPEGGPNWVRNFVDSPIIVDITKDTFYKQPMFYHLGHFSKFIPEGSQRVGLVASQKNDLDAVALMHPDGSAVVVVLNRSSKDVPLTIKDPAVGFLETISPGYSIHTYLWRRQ
# MEASUREMENT NOTES: Glucocerebrosidase (Gcase) activation assay, 4-methylumbelliferyl-beta-D-glucopyranoside substrate, with saposin C
# Format: biochemical
# STATED CONDITIONS: test compound at 0.1 μM; read-out: Percent Gcase Activation, 0.1 μM Test Compound
# Experimental: The ability of exemplary compounds to activate glucocerebrosidase (Gcase) was measured. A 484 μL aliquot of a 1.0 mg/mL solution of phosphatidylserine (PS) (Sigma P7769) in chloroform was evaporated under a stream of nitrogen for 1 hour. The lipid film was dissolved over 4 minutes of vigorous vortexing in 40 mL of 176 mM K2HPO4/50 mM citric acid (pH 4.7) containing 7.5 μL of triton X-100, resulting in a mixed micellar preparation with a composition of 0.32 mM triton and 0.37 mol % PS. […]
RESULT TYPE: activation at 0.1 µM

Lab note: measured activation at 0.1 µM of Cc1cc(-c2cccc(OC3CC3)n2)nc2c(C(=O)NC(C3CC3)C(F)(F)F)ncn12 (stereo not shown) was 10 to 20%

Value of measured activation at 0.1 µM for the entry Cc1sncc1-c1cc(C)n2cnc(C(=O)N[C@H](C3CC3)C(F)(F)F)c2n1 : > 20%

Just so you know, measured activation at 0.1 µM for Cc1cc(-c2ccc(C#N)o2)nc2c(C(=O)NC(C3CC3)C(F)(F)F)ncn12 (stereo not shown) came out at > 20%

Value of activation at 0.1 µM reported for the compound Cc1cc(-c2cccc3c2OCO3)nc2c(C(=O)N[C@@H](C)C3CC3)ncn12 is > 20%

Reported activation at 0.1 µM of Cc1cc(-c2ccon2)nc2c(C(=O)NC(C3CC3)C(F)(F)F)ncn12 (stereo not shown) : < 10%

# activation at 0.1 µM of CCCCO[C@H]1C[C@H]2CC[C@@H](C1)[C@H]2NC(=O)c1ncn2c(COC)cc(C)nc12 = > 20%

The recorded activation at 0.1 µM for entry Cc1cc(-c2ccc(C#N)o2)nc2c(C(=O)N[C@H](C3CC3)C(F)(F)F)ncn12 equals > 20%

---

# MEASURED TARGET: UniProtKB P04062
# MEASUREMENT NOTES: Glucocerebrosidase (Gcase) activation assay, 4-methylumbelliferyl-beta-D-glucopyranoside substrate, with saposin C
# Assay type: biochemical
# STATED CONDITIONS: test compound at 1.0 μM; read-out: Percent Gcase Activation, 1 μM Test Compound
RESULT TYPE: activation at 1 µM

Some solved cases for reference:
MOLECULE	MEASURED TARGET	DATA VALUE
COc1cc(F)cc(-c2cc(C)n3cnc(C(=O)N[C@H](C)C(F)(F)F)c3n2)c1 [IV-58]	UniProtKB P04062	> 60%
Cc1cc(-c2cc(F)cc(C#N)c2)nc2c(C(=O)NC(C3CC3)C(F)(F)F)ncn12 (centres unmarked) [IV-110]	UniProtKB P04062	> 60%
COc1cccc(-c2cc(C)n3cnc(C(=O)N[C@H](C)C(F)(F)F)c3n2)c1 [IV-21]	UniProtKB P04062	> 60%
COc1c(C#N)cccc1-c1cc(C)n2cnc(C(=O)NC(C3CC3)C(F)(F)F)c2n1 (centres unmarked) [IV-67]	UniProtKB P04062	30 to 60%
Cc1cc(Oc2cccnc2)nc2c(C(=O)N[C@@H](C)C3CC3)ncn12 [IV-114]	UniProtKB P04062	< 30%

Entry Cc1cc(N2CCCC(F)(F)C2)nc2c(C(=O)NC(C3CC3)C(F)(F)F)ncn12 (centres unmarked) [IV-113] — recorded activation at 1 µM = > 60%

activation at 1 µM reported for this molecule Cc1cc(-c2cccc(-c3ncncn3)c2)nc2c(C(=O)NC(C3CC3)C(F)(F)F)ncn12 (centres unmarked) [IV-79] : > 60%

// sample Cc1cc(-c2csc(C#N)c2)nc2c(C(=O)NC(C3CC3)C(F)(F)F)ncn12 (centres unmarked) [IV-87] , its activation at 1 µM was > 60%

Data credit: patent US9920061B2
